tgt: Cytochrome P450 1A2 (Homo sapiens) (UniProt P05177)
Sequence (P05177 whole entry, looked up): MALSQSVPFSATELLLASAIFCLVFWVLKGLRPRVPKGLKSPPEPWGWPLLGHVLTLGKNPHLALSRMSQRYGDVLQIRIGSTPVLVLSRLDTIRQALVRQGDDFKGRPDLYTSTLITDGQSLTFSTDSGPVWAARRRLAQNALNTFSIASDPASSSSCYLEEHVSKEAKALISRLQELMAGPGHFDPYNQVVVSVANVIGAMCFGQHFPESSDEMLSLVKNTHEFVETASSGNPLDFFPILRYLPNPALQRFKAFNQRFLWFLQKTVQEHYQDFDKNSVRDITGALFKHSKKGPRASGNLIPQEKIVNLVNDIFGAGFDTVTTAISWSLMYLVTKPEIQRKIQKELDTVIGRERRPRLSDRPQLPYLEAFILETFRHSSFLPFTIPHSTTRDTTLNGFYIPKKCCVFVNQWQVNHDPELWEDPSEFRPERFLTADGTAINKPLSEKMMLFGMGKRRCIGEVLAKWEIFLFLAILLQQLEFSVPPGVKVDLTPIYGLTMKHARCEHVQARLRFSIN
protocol text: Cytochrome panel assay with activity outcomes; also: % is scaled to controls: 0 for no effect and ±100 for the full control effect
experimental context: recombinant CYP, pro-luciferin dealkylation, luminescence, p450-cyp1a2; series mostly up to 57.1 µM
Among all 16,000 compounds or so, about 5,700 (36%) were called active. Another 24% or so got no clear call; they are omitted. The list shows a part of the results.
metric: activity, negative = inhibition

Consider the reported activity, negative = inhibition for these compounds:
> print(dat)
                                  structure                           metric                          result
1  Cn1c(=O)n2n(c1=O)[C@H]1[C@H](O)[C@H]3O[C@@H]3/C(=N/OC[C@@H](O)COCc3ccco3)[C@@H]1CC2  activity, negative = inhibition   2.55% [at 11.4 µM] (inactive)
2  C/C(CCN1CCc2nc(-c3ccccc3)c(-c3ccccc3)cc2C1)=N\OC[C@@H](O)COCc1ccco1  activity, negative = inhibition  -6.41% [at 11.4 µM] (inactive)
3         C/C(=N/Nc1nc(C)cc(=O)[nH]1)C(=O)O  activity, negative = inhibition  -8.18% [at 11.4 µM] (inactive)
4  Cc1c(C)c(C)c(CC2(C)CSC2)c(CC2(C)CSC2)c1C  activity, negative = inhibition  -16.1% [at 11.4 µM] (inactive)
5  O=S1(=O)N[C@H]2CC[C@@H]3NS(=O)(=O)N[C@H]4CC[C@H](N1)N4S(=O)(=O)N23  activity, negative = inhibition   2.05% [at 11.4 µM] (inactive)
6  O=S1(=O)[C@H]([C@H]2CC3c4ccccc4C2c2ccccc23)[C@@H](N2CCCCC2)[C@@H]1c1ccccc1  activity, negative = inhibition   1.63% [at 2.29 µM] (inactive)

QUERY: Query: activity, negative = inhibition; subject: O=C(O)[C@@H]1CCCN1Cc1c[nH]c2ccccc12
RESULT: -13.1% [at 11.4 µM] (inactive)

QUERY: So what's the measured activity, negative = inhibition for this one? CO[C@H]1COC(=O)[C@H]2CCCN2C(=O)C/C=C\[C@@H](C)[C@H](OC)COC(=O)C/C=C\[C@@H]1C
RESULT: 1.68% [at 11.4 µM] (inactive)

Numbers sourced from PubChem BioAssay AID1851.
